Tested on: P. mirabilis ATCC 12453
Test: Antibacterial screening, broth microdilution (MIC/MBC)
Format: cell-based, Proteus mirabilis
Settings: Proteus mirabilis, ATCC12453; P. mirabilis ATCC 12453, MHB, 24 h, 35 °C; read-out: MIC
Listing of recorded MIC by entry.
Give just the numeric value; µg/mL need not be written.

| compound | unit_label | MIC |
| --- | --- | --- |
| COc1ccccc1-c1c(P(=O)(C2CCCCC2)C2CCCCC2)c(O)c2ccccc2c1O | µg/mL | 1000 |

# ---- query compound ----
Tell me the measured MIC of CC1(C)S[C@@H]2[C@H](NC(=O)[C@H](N)c3ccc(O)cc3)C(=O)N2[C@H]1C(=O)O [Amox, Amoxicillin, reference compound] , please. 0.49

====

Listing of recorded CC50 at 24 h by entry.
Assay: Cytotoxicity, microculture tetrazolium (MTT) test, H1HeLa
Format: cell-based
Details: human, H1HeLa cells (cervical adenocarcinoma, ATCC CRL-1958); H1HeLa (cervical adenocarcinoma), 24 h incubation, MTT; ± SD
Give just the numeric value; µg/mL need not be written.

Consider the worked cases shown below.
| compound | unit_label | numeric_value |
| --- | --- | --- |
| COc1cc(OC)c(-c2c(P(=O)(C3CCCCC3)C3CCCCC3)c(O)c3ccccc3c2OC)c(OC)c1 [Compound 3] | µg/mL | 3.83 |
| COc1cc(OC)c(-c2c(P(=O)(C3CCCCC3)C3CCCCC3)c(OC)c3ccccc3c2OC)c(OC)c1 [Compound 1] | µg/mL | 6.78 |
| COc1ccccc1-c1c(P(=O)(C2CCCCC2)C2CCCCC2)c(O)c2ccccc2c1O [Compound 4] | µg/mL | 5.53 |

# ---- query compound ----
Tell me the measured CC50 at 24 h of COc1ccccc1-c1c(P(=O)(C2CCCCC2)C2CCCCC2)c(OC)c2ccccc2c1OC [Compound 2] , please. 5.92

====

Test system: M. luteus ATCC 10240
Experiment: Antibacterial screening, broth microdilution (MIC/MBC)
Format: cell-based, Micrococcus luteus
Details: Micrococcus luteus, ATCC10240; M. luteus ATCC 10240; read-out: MBC
readout: MBC (µg/mL)
Give just the numeric value; µg/mL need not be written.

| compound | tested_system | unit_label | numeric_value |
| --- | --- | --- | --- |
| CC1(C)S[C@@H]2[C@H](NC(=O)[C@H](N)c3ccc(O)cc3)C(=O)N2[C@H]1C(=O)O [Amox, Amoxicillin, reference compound] | M. luteus ATCC 10240 | µg/mL | 31.2 |

# ---- query compound ----
Tell me the measured MBC of COc1cc(OC)c(-c2c(P(=O)(C3CCCCC3)C3CCCCC3)c(OC)c3ccccc3c2OC)c(OC)c1 , please. 125

====

Test system: P. mirabilis ATCC 12453
Assay: Antibacterial screening, broth microdilution (MIC/MBC)
Assay type: cell-based, Proteus mirabilis
Conditions: Proteus mirabilis, ATCC12453; P. mirabilis ATCC 12453, MHB, 24 h, 35 °C; read-out: MIC
readout: MIC

Consider the worked cases shown below.
| entry_smiles | result |
| --- | --- |
| COc1ccccc1-c1c(P(=O)(C2CCCCC2)C2CCCCC2)c(OC)c2ccccc2c1OC | > 1000 µg/mL |
| COc1cc(OC)c(-c2c(P(=O)(C3CCCCC3)C3CCCCC3)c(OC)c3ccccc3c2OC)c(OC)c1 | > 1000 µg/mL |

Look up MIC with P. mirabilis ATCC 12453 for this compound: COc1cc(OC)c(-c2c(P(=O)(C3CCCCC3)C3CCCCC3)c(O)c3ccccc3c2OC)c(OC)c1 > 1000 µg/mL
